Just for reference, patent US12617762B2 is where these values come from.

# assayExplanation: Hepatocyte stability assay, mouse
# Assay type: in vitro ADME
# conditionContext: mouse, hepatocytes, Hepatocyte stability T½
half-life at 10 μM values for the compounds below.
resultType: half-life at 10 μM

>>> val("C=C(Cc1nnc(CCCCCCCC)s1)C(=O)O [Example 37]")
"< 3 min"
>>> val("C=C(Cc1nc(CCCCCCCC)c(C)o1)C(=O)O [Example 107]")
"< 3 min"
>>> val("C=C(Cc1nc(C(F)(F)CCCCCCC)no1)C(=O)O [Example 88]")
"< 3 min"
>>> val("C=C(Cc1nc(CCCCCCCCCCC)no1)C(=O)O [Example 56]")
"< 3 min"
>>> val("C=C(Cc1nc(-c2ccc(CCCC)cc2)no1)C(=O)O [Example 18]")
"< 3 min"
>>> val("C=C(Cc1nc(CCCCCCCCC)no1)C(=O)O [Example 53]")
"< 3 min"
>>> val("C=C(Cc1nc(-c2ccc(OCc3ccccc3)cc2)no1)C(=O)O [Example 100]")
"< 3 min"
>>> val("C=C(Cc1ncc(CCCCCCCC)o1)C(=O)O [Example 59]")
"< 3 min"

---

hepatocyte CLint at 10 μM values for the compounds below.
# assayExplanation: Hepatocyte stability assay, mouse
# Format: in vitro ADME
# conditionContext: mouse, hepatocytes, Hepatocyte stability Clint
resultType: hepatocyte CLint at 10 μM

>>> val("C=C(Cc1nnc(CCCCCCCC)s1)C(=O)O")
"> 481 µL/min/1e6 cells"
>>> val("C=C(Cc1ncc(CCCCCCCC)o1)C(=O)O")
"> 460 µL/min/1e6 cells"
>>> val("C=C(Cc1nc(-c2ccc(CCCC)cc2)no1)C(=O)O")
"> 460 µL/min/1e6 cells"
>>> val("C=C(Cc1nc(Cc2ccc(C3(CCC)CC3)cc2)no1)C(=O)O")
"> 460 µL/min/1e6 cells"
>>> val("C=C(Cc1ccc(CCCCCCCC)cn1)C(=O)O")
"> 460 µL/min/1e6 cells"
>>> val("C=C(Cc1nc(-c2ccc(OCc3ccccc3)cc2)no1)C(=O)O")
"> 460 µL/min/1e6 cells"

---

# assayExplanation: Hepatocyte stability assay, mouse
# Assay type: in vitro ADME
# conditionContext: mouse, hepatocytes, Hepatocyte stability T½
# Experimental: Defrosted cryo-preserved hepatocytes (viability >70%) were used to determine the metabolic stability of a compound via calculation of intrinsic clearance (CIint; a measure of the removal of a compound from the liver in the absence of blood flow and cell binding). […] The metabolic stability in hepatocytes assay involves a time-dependent reaction using both positive and negative controls. […] 80 μL of clear supernatant was removed and mixed with 80 μL of deionised water before being analysed by LC-MS/MS. […]
Counter-ions that a name gives are not always drawn.
resultType: half-life at 10 μM

>>> val("C=C(Cc1nc(-c2ccc(CCCCC)cc2)no1)C(=O)O")
"< 3 min"
>>> val("C=C(Cc1nc(Cc2ccc(-c3ccc(Cl)cc3)cc2)no1)C(=O)O")
"< 3 min"
>>> val("C=C(Cc1cc(CCCCCCCC)on1)C(=O)O")
"< 3 min"
>>> val("C=C(Cc1cc(CCCCCCCC)ccn1)C(=O)O [Example 104, trifluoroacetic acid salt]")
"< 3 min"

---

# Tested on: NRF2 (nuclear factor erythroid 2-related factor 2)
# assayExplanation: NRF2 +/-GSH activation assay (DiscoverX PathHunter NRF2 translocation kit, U2OS cells)
# Assay type: cell-based
# conditionContext: +GSH; normalised to DMF high control
NRF2 activation +GSH Emax values for the molecules below.
resultType: NRF2 activation +GSH Emax (%)

>>> val("C=C(Cc1nc(CCCCCCC(C)(F)F)no1)C(=O)O [Example 31]")
127
>>> val("C=C(Cc1nc(Cc2ccc(CCCCC)cc2)no1)C(=O)O [Example 28]")
201
>>> val("C=C(Cc1nc(Cc2ccc(OC)c(Cl)c2)no1)C(=O)O [Example 163]")
"−10"
>>> val("C=C(Cc1nc(C(F)(F)c2ccc(Cl)cc2)no1)C(=O)O [Example 74]")
65
>>> val("C=C(Cc1noc(C(F)(F)CCCCCCC)n1)C(=O)O [Example 83]")
161
>>> val("C=C(Cc1nc(C2(c3ccc(F)cc3)CC2)no1)C(=O)O [Example 44]")
23
>>> val("C=C(Cc1noc(-c2ccc(OCCCC)cc2)n1)C(=O)O [Example 96]")
115

---

# assayExplanation: Hepatocyte stability assay, human
# Type: in vitro ADME
# conditionContext: human, hepatocytes, Hepatocyte stability Clint
hepatocyte CLint at 10 μM values for the compounds below.
resultType: hepatocyte CLint at 10 μM

>>> val("C=C(Cc1nc(CCCCCCCC)cs1)C(=O)O")
"> 447 µL/min/1e6 cells"
>>> val("C=C(Cc1ccc(CCCCCCCC)cn1)C(=O)O")
"> 460 µL/min/1e6 cells"
>>> val("C=C(Cc1nc(Cc2ccc(Cl)cc2)no1)C(=O)O")
"< 3 µL/min/1e6 cells"
>>> val("C=C(Cc1nc(Cc2cc(Cl)cc(Cl)c2)no1)C(=O)O")
"< 4 µL/min/1e6 cells"
>>> val("C=C(Cc1nc(C(F)(F)c2ccc(C(F)(F)F)cc2)no1)C(=O)O")
"< 3 µL/min/1e6 cells"

---

# assayExplanation: Hepatocyte stability assay, human
# Format: in vitro ADME
# conditionContext: human, hepatocytes, Hepatocyte stability T½
half-life at 10 μM values for the compounds below.
resultType: half-life at 10 μM (min)

>>> val("C=C(Cc1nc(-c2ccc(Cl)cc2)c(CCCC)o1)C(=O)O")
79
>>> val("C=C(Cc1nnc(CCCCCCCC)o1)C(=O)O")
15
>>> val("C=C(Cc1nc(C2(c3ccc(OC(F)(F)F)cc3)CC2)no1)C(=O)O")
172
>>> val("CCCCCCCCc1noc(/C=C(\\C)C(=O)O)n1")
6
>>> val("C=C(Cc1nc(-c2ccc(C3(CCC)CC3)cc2)no1)C(=O)O")
27
>>> val("C=C(Cc1nc(C2(c3cccc(Cl)c3)CC2)no1)C(=O)O")
83
>>> val("C=C(Cc1nc(-c2ccc(OCCCC)cc2)no1)C(=O)O")
29
>>> val("C=C(Cc1nc(-c2cccc(CCCC)c2)no1)C(=O)O")
8
>>> val("C=C(Cc1nc(C2(c3ccc(C(F)(F)F)cc3)CC2)no1)C(=O)O")
84
>>> val("C=C(Cc1nc(Cc2ccc(CCCC)cc2)co1)C(=O)O")
6
>>> val("C=C(Cc1nc(Cc2ccc(C3CCCC3)cc2)no1)C(=O)O")
61
>>> val("C=C(Cc1nc(-c2ccc(CCCC)cc2)no1)C(=O)O")
11
>>> val("C=C(Cc1noc(C(F)(F)c2ccc(Br)cc2)n1)C(=O)O")
77
>>> val("C=C(Cc1nc(CCCCCCCCC(F)(F)F)no1)C(=O)O")
11
>>> val("C=C(Cc1noc(C(F)(F)c2ccc(C(F)(F)F)cc2)n1)C(=O)O")
125
>>> val("C=C(Cc1nc(C2(c3cc(Cl)cc(Cl)c3)CC2)no1)C(=O)O")
23
>>> val("C=C(Cc1nc(-c2ccc(OCCCC)c(F)c2)no1)C(=O)O")
22

---

# assayExplanation: Hepatocyte stability assay, human
# Format: in vitro ADME
# conditionContext: human, hepatocytes, Hepatocyte stability T½
resultType: half-life at 10 μM

>>> val("C=C(Cc1cc(CCCCCCCC)on1)C(=O)O")
"< 3 min"
>>> val("C=C(Cc1ccc(CCCCCCCC)cn1)C(=O)O")
"< 3 min"
>>> val("C=C(Cc1nc(Cc2ccc(OC(F)(F)C(F)F)cc2)no1)C(=O)O")
"> 460 min"
